Notes on Ki obtained with Adenosine receptor A2a (Homo sapiens).
Sequence (P29274 whole entry): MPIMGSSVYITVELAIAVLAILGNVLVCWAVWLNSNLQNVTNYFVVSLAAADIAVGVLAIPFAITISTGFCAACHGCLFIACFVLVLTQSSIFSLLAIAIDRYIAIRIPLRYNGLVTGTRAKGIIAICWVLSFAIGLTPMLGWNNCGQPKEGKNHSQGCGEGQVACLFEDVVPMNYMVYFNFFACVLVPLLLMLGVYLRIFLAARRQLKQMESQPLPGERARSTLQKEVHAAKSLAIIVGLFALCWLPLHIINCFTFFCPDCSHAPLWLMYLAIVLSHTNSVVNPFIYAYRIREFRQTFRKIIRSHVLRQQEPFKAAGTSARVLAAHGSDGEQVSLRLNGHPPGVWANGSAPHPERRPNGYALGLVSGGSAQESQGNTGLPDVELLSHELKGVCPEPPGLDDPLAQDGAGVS

Observe how each entry below is paired with its result.
>>> df
                                smiles_data   result
0  COc1ccc(C(=O)Nc2nc(-c3ccccc3)c(-c3nc(N)c4c5c(sc4n3)CCCC5)s2)cc1  > 10 µM
1  Cc1ccc(C(=O)Nc2nc(-c3ccccc3)c(-c3nc(N)c4c(C)c(C)sc4n3)s2)cc1  > 30 µM

Continue with the next compound.
Request: Please tell me the measured Ki for COc1ccc(C(=O)Nc2nc(-c3ccccc3)c(C(=O)c3cccnc3)s2)cc1 ; system: Adenosine receptor A2a (Homo sapiens).
Response: > 10 µM

====

Target: Adenosine receptor A2b (Homo sapiens, UniProt P29275)
Sequence (P29275 whole entry): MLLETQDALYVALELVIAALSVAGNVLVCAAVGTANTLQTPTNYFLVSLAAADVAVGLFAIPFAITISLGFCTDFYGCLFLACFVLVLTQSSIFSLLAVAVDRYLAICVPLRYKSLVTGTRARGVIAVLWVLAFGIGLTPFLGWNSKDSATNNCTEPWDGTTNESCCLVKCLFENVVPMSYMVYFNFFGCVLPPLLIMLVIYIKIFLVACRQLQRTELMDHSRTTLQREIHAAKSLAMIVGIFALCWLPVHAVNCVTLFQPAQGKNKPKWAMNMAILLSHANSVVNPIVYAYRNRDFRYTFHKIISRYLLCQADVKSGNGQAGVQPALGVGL
Assay: Antagonist activity at human adenosine A2B receptor expressed in CHO cells assessed as inhibition of NECA-stimulated adenylyl cyclase activity
RESULT_TYPE: Ki

                                smiles_data                            assayed_target   result
0  O=C(Nc1nc(-c2ccccc2)c(C(=O)c2cccnc2)s1)c1ccco1  Adenosine receptor A2b (Homo sapiens, UniProt P29275)  > 10 µM

Request: Report its Ki with Adenosine receptor A2b (Homo sapiens, UniProt P29275) as the test system: COc1ccc(C(=O)Nc2nc(-c3ccccc3)c(-c3nc(N)c4c5c(sc4n3)CCCC5)s2)cc1
Response: > 10 µM

====

Catalogue of pKi values
Molecular target: Adenosine receptor A2b (Homo sapiens, UniProt P29275)
Assay: Antagonist activity at human adenosine A2B receptor expressed in CHO cells assessed as inhibition of NECA-stimulated adenylyl cyclase activity
pKi: −log10 of the molar value.

                                smiles_data                            assayed_target  result_type  result
0  CN(C)c1nc(N)nc(-c2sc(NC(=O)c3ccco3)nc2-c2ccccc2)n1  Adenosine receptor A2b (Homo sapiens, UniProt P29275)          pKi    5.10

Request: Look up pKi of Cc1sc2nc(-c3sc(NC(=O)c4ccco4)nc3-c3ccccc3)nc(N)c2c1C and report it.
Response: < 5.00

Request: Answer with the recorded pKi of COc1ccc(C(=O)Nc2nc(-c3ccccc3)c(-c3nc(N)nc(N(C)C)n3)s2)cc1 only.
Response: < 5.00

Request: State its pKi: Cc1sc2nc(-c3sc(NC(=O)c4ccco4)nc3-c3ccccc3)[nH]c(=O)c2c1C
Response: < 5.00

Request: // fetch pKi given entry Cc1ccc(C(=O)Nc2nc(-c3ccccc3)c(-c3nc(N)c4c(C)c(C)sc4n3)s2)cc1
Response: < 5.00

Request: Using the record for Cc1sc2nc(-c3sc(NC(=O)c4ccccc4)nc3-c3ccccc3)nc(N)c2c1C , state its measured pKi.
Response: < 5.00

Request: // Input: O=C(Nc1nc(-c2ccccc2)c(-c2ccccn2)s1)c1ccco1 . Output its pKi only.
Response: 6.08

Ref: ChEMBL document CHEMBL2390947
